log10 Ki reference
Target: hEP4 (Homo sapiens)
Sequence (P35408 whole entry): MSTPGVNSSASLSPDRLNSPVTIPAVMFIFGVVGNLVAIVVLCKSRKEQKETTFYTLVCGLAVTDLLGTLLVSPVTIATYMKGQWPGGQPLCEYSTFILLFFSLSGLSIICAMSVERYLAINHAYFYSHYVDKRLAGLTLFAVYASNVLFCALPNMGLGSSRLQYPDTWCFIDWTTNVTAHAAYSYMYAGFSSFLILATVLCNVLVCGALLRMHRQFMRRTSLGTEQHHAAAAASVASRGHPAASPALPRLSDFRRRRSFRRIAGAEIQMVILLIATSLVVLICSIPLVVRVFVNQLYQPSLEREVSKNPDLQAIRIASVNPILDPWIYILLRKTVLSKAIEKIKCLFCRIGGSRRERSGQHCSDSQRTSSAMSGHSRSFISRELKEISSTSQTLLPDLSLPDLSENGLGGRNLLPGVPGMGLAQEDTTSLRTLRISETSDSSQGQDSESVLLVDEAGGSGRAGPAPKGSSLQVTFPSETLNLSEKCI
Field: value | Transform: log10 | Quantity: Ki | Unit: µM

O=C(O)CCC/C=C\C[C@@H]1[C@@H](COc2ccc3ccccc3c2)[C@H](O)C[C@H]1Cl | -0.29
O=C(O)CCC/C=C\C[C@@H]1[C@@H](COc2cccc3c2CCC3O)[C@H](O)C[C@H]1Cl (stereo partly shown) | 0.48
O=C(O)CCCCCC[C@@H]1[C@@H](COc2ccc3ccccc3c2)[C@H](O)C[C@H]1Cl | -0.01

For reference, reported log10 Ki for CCCCCC(O)c1cccc(OC[C@@H]2[C@@H](C/C=C\CCCC(=O)O)[C@H](Cl)C[C@H]2O)c1 (stereo partly shown) stands at 0.05

For reference, reported log10 Ki for CCCC(OC)c1ccc(OC[C@@H]2[C@@H](C/C=C\CCCC(=O)O)[C@H](Cl)C[C@H]2O)cc1 (stereo partly shown) stands at 0.72

For reference, reported log10 Ki for CCCCCC(O)c1ccc(OC[C@@H]2[C@@H](C/C=C\CCCC(=O)O)[C@H](Cl)C[C@H]2O)cc1 (stereo partly shown) stands at 0.42

Origin of values: patent US7405240B2
